- Protocol details: Inhibition of C57BL/6 mouse synaptosomal choline transporter
- Set-up: species or system C57BL6
pKi: −log10 of the molar value.

Smiles representation	pKi
C[N+](C)(CCCCCC[N+](C)(C)Cc1cccc(O)c1O)Cc1cccc(O)c1O	4.14
C[N+](C)(CCCCCCCCCC[N+](C)(C)Cc1cccc(O)c1O)Cc1cccc(O)c1O	4.51

====

- Protocol details: Inhibition of C57BL/6 mouse synaptosomal choline transporter
- Parameters: species or system C57BL6
pIC50: −log10 of the molar value.

Molecule	pIC50
C[N+](C)(C)CCCCCCCCCC[N+](C)(C)C	5.82
C[N+](C)(C)CCCCCC[N+](C)(C)C [HEXAMETHONIUM CHLORIDE]	3.89
C[N+](C)(CCCCCCCCCC[N+](C)(C)Cc1cccc(O)c1O)Cc1cccc(O)c1O	4.68
C[N+](C)(CCCCCC[N+](C)(C)Cc1cccc(O)c1O)Cc1cccc(O)c1O	4.12

The values you see were collected from ChEMBL document CHEMBL1137489.
